This collection of values is drawn from the supplement of paper PMC10567573.

B1: CDC14A (parent)
chain: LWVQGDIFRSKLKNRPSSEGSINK

Variants of: B1
method_notes: protein stability index of a GFP-peptide fusion (GPS, HEK-293T) (PSI 1-6); higher = more stable;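 also: lentivirally expressed fusions sorted by FACS into six bins by GFP to DsRed ratio, PSI derived from sequencing read proportions per bin multiplied by bin number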
condition_notes: c terminus: a fixed tail appended
For each record, write down the corresponding protein stability index.

See these solved cases before continuing.
>>> print(df.to_string())
                construct_sequence  test_result
0  LWVQGDIFRSKLKNRDSSEGSINK [P16D]         2.89
1  LWVQGDIFRSKLKNRPSREGSINK [S18R]         2.42
2   LWVQGDWFRSKLKNRPSSEGSINK [I7W]         1.71
3   LWVQGDISRSKLKNRPSSEGSINK [F8S]         3.34
4  LWVQGDIFRSKLKNRPSSEGSNNK [I22N]         3.05
5  LWVQGDIFRMKLKNRPSSEGSINK [S10M]         2.49

Please give protein stability index, item by item, for the list that follows.
1. RWVQGDIFRSKLKNRPSSEGSINK [L1R]
2. LIVQGDIFRSKLKNRPSSEGSINK [W2I]
3. LWVQGDIFRSKLKNRKSSEGSINK [P16K]

Result block:
1. 4.17
2. 2.51
3. 2.68

Please give protein stability index, item by item, for the list that follows.
1. LWVQGDIFRSKLKPRPSSEGSINK [N14P]
2. LWVQGDIFRSKLKNRPSSEGFINK [S21F]

Result block:
1: 2.45; 2: 2.46
